Tested on: biotinyl-Trp-oxazolone
procedure_details: self-aminoacylation, catalytic enhancement (BWO) (fold over background); higher = more active; k-Seq, kA / k0A0; sequences stand for … in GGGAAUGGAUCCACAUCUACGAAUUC…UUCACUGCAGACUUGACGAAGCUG
Variants at the floor of the assay were thinned out.
Kind request: treat 1 as inclusive, so self-aminoacylation at 1 or higher is T, anything lower is F.

- chain_sequence: "AUUGACCUGGGUCAUCGGGUG [Fam2.2 aminoacylation ribozyme variant]"
  classification: "T"
- chain_sequence: "CGACUUCAAACCAUCGGUCUG [Fam1A.1 aminoacylation ribozyme variant]"
  classification: "F"
- chain_sequence: "CUGCUUCAAACAUUCGGUCUG [Fam1A.1 aminoacylation ribozyme variant]"
  classification: "F"
- chain_sequence: "CUACUUCAAACAAUCGAUCUG [Fam1A.1 aminoacylation ribozyme variant]"
  classification: "T"
- chain_sequence: "CCACACUCCAAACAAUCGGUC [Fam1B.1 aminoacylation ribozyme variant]"
  classification: "T"
- chain_sequence: "CUACUUCAAACAAUCGGUGUG [Fam1A.1 aminoacylation ribozyme variant]"
  classification: "T"
- chain_sequence: "GUUACCCUGGUCAUCAAGUGA [Fam2.1 aminoacylation ribozyme variant]"
  classification: "T"
- chain_sequence: "CUACUUCAAGCAAUCGGUCUU [Fam1A.1 aminoacylation ribozyme variant]"
  classification: "T"
- chain_sequence: "AUUCACCUAGCUCAUCGGUUG [Fam2.2 aminoacylation ribozyme variant]"
  classification: "F"
- chain_sequence: "CCACACUUUGAGCAAUCGGUC [Fam1B.1 aminoacylation ribozyme variant]"
  classification: "F"
- chain_sequence: "UUACUUCACACAAUCGGUCUG [Fam1A.1 aminoacylation ribozyme variant]"
  classification: "T"
- chain_sequence: "UUUACCCUGGUCAUCGAGUGU [Fam2.1 aminoacylation ribozyme variant]"
  classification: "T"
- chain_sequence: "CUACUUCAAACAAUCGUUUUG [Fam1A.1 aminoacylation ribozyme variant]"
  classification: "F"
- chain_sequence: "CUACUUCAAAUAAUCGGUAUG [Fam1A.1 aminoacylation ribozyme variant]"
  classification: "T"
- chain_sequence: "UAGUUAGCUAAUAGUCGCAAG [Fam3.1 aminoacylation ribozyme variant]"
  classification: "T"
- chain_sequence: "UUACUUCAAACAAUCGGUCGG [Fam1A.1 aminoacylation ribozyme variant]"
  classification: "T"
- chain_sequence: "GCACACUUAAAGCAAUCGGUC [Fam1B.1 aminoacylation ribozyme variant]"
  classification: "T"
- chain_sequence: "AAGUUUGCUAAUCGACGCAAG [Fam3.1 aminoacylation ribozyme variant]"
  classification: "F"
- chain_sequence: "AUACACCUACGUCAUCGGGUG [Fam2.2 aminoacylation ribozyme variant]"
  classification: "T"
- chain_sequence: "GCACACUUCAAGCAAUCGGUG [Fam1B.1 aminoacylation ribozyme variant]"
  classification: "T"
- chain_sequence: "AUGCACCUAGGUCAGCGGGUG [Fam2.2 aminoacylation ribozyme variant]"
  classification: "T"
- chain_sequence: "AUUAACUUGGUCAUCGAGUGA [Fam2.1 aminoacylation ribozyme variant]"
  classification: "T"
- chain_sequence: "AUUCAGCUAGGUCAUGGGGUG [Fam2.2 aminoacylation ribozyme variant]"
  classification: "T"
- chain_sequence: "AUUCACCUAGGUAAUCGGUUG [Fam2.2 aminoacylation ribozyme variant]"
  classification: "F"
- chain_sequence: "AUUCACCUAAGUCAUCGGAUG [Fam2.2 aminoacylation ribozyme variant]"
  classification: "F"
- chain_sequence: "CUACACUUCAAGGAAUCGGUC [Fam1B.1 aminoacylation ribozyme variant]"
  classification: "T"
- chain_sequence: "AGUCACCUAGGUUAUCGGGUG [Fam2.2 aminoacylation ribozyme variant]"
  classification: "T"
- chain_sequence: "AAUACCCUUGUCAUCGAGUGA [Fam2.1 aminoacylation ribozyme variant]"
  classification: "T"
- chain_sequence: "AUUCACCUAUGGCAUCGGGUG [Fam2.2 aminoacylation ribozyme variant]"
  classification: "T"
- chain_sequence: "GAGUUUGCUAUUAGUCGCAAG [Fam3.1 aminoacylation ribozyme variant]"
  classification: "T"
- chain_sequence: "GUACUUCAAACAAUCGCUCUG [Fam1A.1 aminoacylation ribozyme variant]"
  classification: "T"
- chain_sequence: "AUUCACCUAUGCCAUCGGGUG [Fam2.2 aminoacylation ribozyme variant]"
  classification: "T"
- chain_sequence: "CUAAUUCAACCAAUCGGUCUG [Fam1A.1 aminoacylation ribozyme variant]"
  classification: "T"
- chain_sequence: "CUACUUCAAACAAGGGGUCUG [Fam1A.1 aminoacylation ribozyme variant]"
  classification: "F"

Measured values drawn from the supplement of paper PMC9233669 for this set.
